Every entry's value here was drawn from the supplement of paper PMC9694430.

System: LOC_OS01G21960-cb002
assay_overview: thermal shift delta Tm vs DMSO control; higher = stronger stabilization (binding);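 also: purified Escherichia coli-expressed rice kinase domain construct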
test_settings: 12.5 µM; protein concentration 2 µM
readout_type: thermal shift delta Tm (°C)
Give the value in °C but do not write °C after it.

Before answering, review these 4 worked examples.
• CN1CC(O)C2=C/C(=N/NC(N)=O)C(=O)C=C21 (stereo not given) = 0.23
• COc1cc2ncnc(Sc3nnc(C)s3)c2cc1OC = 0.06
• COc1ccc(Cl)cc1NC(=O)Nc1cc(C)nc2ccccc12 = 1.37
• COc1cc(OC)c(/C=C/S(=O)(=O)Cc2ccc(OC)c(NCC(=O)O)c2)c(OC)c1 = 0.96

Now, please, on to the next compound.
Q: Identify the reported thermal shift delta Tm for the following entry. NC(=O)c1ncn([C@@H]2O[C@H](CO)[C@@H](O)[C@H]2O)c1N
Result: 0.94

###

Test system: LOC_OS05G16824-cb004
assay_overview: thermal shift delta Tm vs DMSO control; higher = stronger stabilization (binding)
test_settings: 12.5 µM; protein concentration 2 µM
Structures can show the parent of a compound that is named as a salt.
Classification field: enter Satisfied for thermal shift delta Tm values not below 1 °C, Not satisfied for values below it.

* CN1CCN(c2cccc(Nc3nc4c(-c5ccc(S(C)(=O)=O)cc5)cccn4n3)c2)CC1 | Satisfied
* Cc1ccccc1CN1C2=NCCN2C(=O)C2=C1CCN(Cc1ccccc1)C2 [TIC10 Analogue] | Not satisfied
* C[C@H]1CNCCCN1S(=O)(=O)c1cccc2cncc(F)c12 [Ripasudil (K-115) hydrochloride dihydrate] | Not satisfied

Q: # check: thermal shift delta Tm of CN(c1ccccc1CNc1nc(Nc2ccc3c(c2)CC(=O)N3)ncc1C(F)(F)F)S(C)(=O)=O is greater than or equal to 1 °C
Result: Satisfied

Q: # check: thermal shift delta Tm of CNC(=O)c1nn(C)c2c1C(C)(C)Cc1cnc(Nc3ccc(N4CCN(C)CC4)cc3)nc1-2 is greater than or equal to 1 °C
Result: Satisfied

Q: # check: thermal shift delta Tm of Nc1ncnc2c1c(-c1cnc3[nH]ccc3c1)nn2C1CCCC1 is greater than or equal to 1 °C
Result: Satisfied

Q: # check: thermal shift delta Tm of CC(C)(C)c1nc(-c2ccc(NC(=O)Nc3cccc(C(F)(F)F)c3)c3ccccc23)c2c(N)nccn12 [kira6] is greater than or equal to 1 °C
Result: Satisfied

Q: # check: thermal shift delta Tm of CC(C)N(CCC(=O)c1ccc2ccccc2c1)Cc1ccccc1 is greater than or equal to 1 °C
Result: Not satisfied

###

System: LOC_OS01G13800-cb001
assay_overview: thermal shift delta Tm vs DMSO control; higher = stronger stabilization (binding)
test_settings: 12.5 µM; protein concentration 2 µM
Where a name gives a salt, the structure may show the parent alone.
Recorded thermal shift delta Tm, one value per entry.
Give the value in °C but do not write °C after it.

- CC(C)(C)NS(=O)(=O)c1cncc(-c2cc(F)c3nc(N)nn3c2)c1: 0.1
- O=C(Nc1c[nH]nc1-c1nc2ccc(CN3CCOCC3)cc2[nH]1)NC1CC1: -0.38
- CC(C)(C)c1cc(NC(=O)Nc2ccc(Oc3ccnc4[nH]c(=O)cnc34)cc2F)n(-c2ccccc2)n1: 0.95
- CCN(CC)CCNC(=O)c1c(C)[nH]c(/C=C2\C(=O)Nc3ccc(F)cc32)c1C [Sunitinib]: -0.3
- CCN1C(=O)CNc2ncc(-c3ccc(-c4nc[nH]n4)nc3C)nc21: 0.86
- COc1cc(Nc2ncc3c(n2)-c2ccc(Cl)cc2C(c2c(F)cccc2OC)=NC3)ccc1C(=O)O: -0.04

Q: Identify the reported thermal shift delta Tm for the following entry. CN1CC[C@H](c2c(O)cc(O)c3c(=O)cc(-c4ccccc4Cl)oc23)[C@H](O)C1 [Flavopiridol HCl]
Result: 0.42

Q: Identify the reported thermal shift delta Tm for the following entry. CC#CC(=O)N1CCC[C@H]1c1nc(-c2ccc(C(=O)Nc3ccccn3)cc2)c2c(N)nccn12
Result: 0.19

###

Test system: LOC_OS05G07850-cb002
assay_overview: thermal shift delta Tm vs DMSO control; higher = stronger stabilization (binding)
test_settings: 12.5 µM; protein concentration 2 µM
Classification field: enter Criterion met for thermal shift delta Tm values not below 10 °C, Criterion not met for values below it.

Here's what some known entries look like.
- COc1ccc(S(=O)(=O)N(C(C)=O)c2ccccc2/C=C/c2cc[n+]([O-])cc2)cc1: Criterion not met
- O=C1Nc2ccccc2/C1=C1/Nc2ccccc2C1=O [Indirubin]: Criterion not met
- Cc1ccc(C(=O)Nc2ccc(Oc3cc4cnn(C)c4cc3-c3cn[nH]c3)c(F)c2)c(=O)n1-c1ccc(F)cc1: Criterion met
- CCn1c(=O)c(-c2cc[nH]n2)cc2c(C)nc(N)nc21: Criterion not met
- CC1(COc2ccc3c(c2)ncn3-c2ccc3cccc(N4CCC(N)CC4)c3n2)COC1: Criterion met

Q: # check: thermal shift delta Tm of O=C(NCc1ccccc1)c1csc(Nc2ccncn2)n1 [Thiazovivin] is greater than or equal to 10 °C
Result: Criterion not met

Q: # check: thermal shift delta Tm of CCCS(=O)(=O)Nc1ccc(F)c(C(=O)c2c[nH]c3ncc(-c4ccc(Cl)cc4)cc23)c1F [Vemurafenib (PLX4032, RG7204)] is greater than or equal to 10 °C
Result: Criterion met

Q: # check: thermal shift delta Tm of CC(C)(C)c1cc(/C=C(\C#N)C(N)=S)cc(C(C)(C)C)c1O [Tyrphostin AG 879] is greater than or equal to 10 °C
Result: Criterion met

Q: # check: thermal shift delta Tm of COC1(c2sc3c(N4CCOCC4)nc(-c4cnc(N)nc4)nc3c2C)COC1 is greater than or equal to 10 °C
Result: Criterion not met

###

Tested on: LOC_OS01G39600-cb002
assay_overview: thermal shift delta Tm vs DMSO control; higher = stronger stabilization (binding)
test_settings: 12.5 µM; protein concentration 2 µM
readout_type: thermal shift delta Tm

• C[C@@H](Nc1cc(F)cc(F)c1)c1cc(C(=O)N(C)C)cc2c(=O)cc(N3CCOCC3)oc12 = -0.77 °C
• CCN1/C(=C/C(C)=O)Sc2ccc(OC)cc21 = -0.62 °C
• COc1ccc(S(=O)(=O)N(C(C)=O)c2ccccc2/C=C/c2cc[n+]([O-])cc2)cc1 = -0.39 °C

Q: Identify the reported thermal shift delta Tm for the following entry. C[S+]([O-])c1ccc(-c2nc(-c3ccc(F)cc3)c(-c3ccncc3)[nH]2)cc1 (stereo not drawn)
Result: 0.18 °C

Q: Identify the reported thermal shift delta Tm for the following entry. COc1ccc(CC(=O)Nc2nc3c(s2)CCc2ccccc2-3)cc1OC
Result: 0.43 °C

###

System: LOC_OS07G07230-cb001
assay_overview: thermal shift delta Tm vs DMSO control; higher = stronger stabilization (binding)
test_settings: 12.5 µM; protein concentration 2 µM
Recorded thermal shift delta Tm, one value per entry.
Give the value in °C but do not write °C after it.

- Cc1cc(C(=O)Nc2nc3cccc(Cl)c3n2[C@@H]2CCCCN(C(=O)/C=C/CN(C)C)C2)ccn1 [Nazartinib (EGF816, NVS-816)]: 0.43
- CCOc1cc(C(=O)N2CCC(N3CCN(C)CC3)CC2)ccc1Nc1ncc2c(n1)N(C1CCCC1)c1ccccc1C(=O)N2C: -0.25
- CCN(CC)CCNC(=O)c1c(C)[nH]c(/C=C2\C(=O)Nc3ccc(F)cc32)c1C [Sunitinib]: 0.24
- CCCCCCCCCCCCCCCCCCOP(=O)([O-])OC1CC[N+](C)(C)CC1 [Perifosine (KRX-0401)]: -2.65
- COc1cc(CCc2cc(NC(=O)c3ccc(N4CC(C)NC(C)C4)cc3)n[nH]2)cc(OC)c1 (configuration not stated): -0.08
- CNS(=O)(=O)C[C@H]1CC[C@H](N(C)c2[nH]cnc3nccc2-3)CC1 [Oclacitinib]: 0.51

Now, please, on to the next molecule.
Q: Identify the reported thermal shift delta Tm for the following entry. Cn1cc(-c2ccc3nnc(Sc4ccc5ncccc5c4)n3n2)cn1
Result: 0.51

###

System: LOC_OS01G39600-cb002
assay_overview: thermal shift delta Tm vs DMSO control; higher = stronger stabilization (binding)
test_settings: 12.5 µM; protein concentration 2 µM
Structures can show the parent of a compound that is named as a salt.
readout_type: thermal shift delta Tm (°C)
Give the value in °C but do not write °C after it.

Before answering, review these 3 worked examples.
* COc1cc2nccc(Oc3ccc(NC(=O)C4(C(=O)Nc5ccc(F)cc5)CC4)cc3)c2cc1OC [Cabozantinib malate (XL184)] | 0.26
* COc1nccnc1NS(=O)(=O)c1ccc(NC(=O)/C=C/c2ccc([N+](=O)[O-])s2)cc1 [Necrosulfonamide] | -1.55
* Cc1csc(-c2nnc(Nc3ccc(Oc4ncccc4-c4ccnc(N)n4)cc3)c3ccccc23)c1 | 1.72

Q: Identify the reported thermal shift delta Tm for the following entry. CN1C(=O)[C@@H](NC(=O)c2n[nH]c(Cc3ccccc3)n2)COc2ccccc21
Result: 0.62

Q: Identify the reported thermal shift delta Tm for the following entry. O=c1cc(-c2cccc3c2Sc2ccccc2S3)oc(N2CCOCC2)c1
Result: 0.29

Q: Identify the reported thermal shift delta Tm for the following entry. O=C(O)[C@]1(Cc2cccc(Nc3nccs3)n2)CC[C@@H](Oc2cccc(Cl)c2F)CC1
Result: 2.55

Q: Identify the reported thermal shift delta Tm for the following entry. CCCNC(=O)c1cn2ncnc(Nc3cc(C(=O)NC4CC4)ccc3C)c2c1C
Result: 0.07

Q: Identify the reported thermal shift delta Tm for the following entry. CC#CC(=O)N1CC[C@@H](n2c(=O)n(-c3ccc(Oc4ccccc4)cc3)c3c(N)ncnc32)C1 [ONO-4059 (GS-4059) hydrochloride]
Result: 0.11

Q: Identify the reported thermal shift delta Tm for the following entry. Cn1cc(-c2ccc3ncc(Cc4ccc5ncccc5c4)n3n2)cn1
Result: 0.86
